# credit: patent US5446157A

Experiment: UV light absorption (λmax, log ε)
Assay type: physicochemical
Settings: solvent as for λmax (ethanol except where noted)
QUANTITY: log ε
One number for each entry.

A selection of reference data follows.
INSERT INTO results (chemical_smiles, quantity, readout_number) VALUES
  ('CC1=[N+]2C(=Cc3c(-c4ccccc4)c(-c4ccccc4)c(C)n3[B-]2(F)F)C(c2ccccc2)=C1c1ccccc1', 'log ε', 4.91),
  ('CCC1=C(CC)C(C)=[N+]2C1=C(C)c1c(CC)c(CC)c(C)n1[B-]2(F)F', 'log ε', 4.89),
  ('CCCC1=C(C)C2=C(C)c3c(C)c(CCC)c(C)n3[B-](F)(F)[N+]2=C1C', 'log ε', 4.89),
  ('CC(=O)NC1=C(C)C2=C(C)c3c(C)c(NC(C)=O)c(C)n3[B-](F)(F)[N+]2=C1C', 'log ε', 4.63),
  ('CCC1=C(C)C2=C(C3CCCCC3)c3c(C)c(CC)c(C)n3[B-](F)(F)[N+]2=C1C', 'log ε', 4.81);

// for each compound in input: emit log ε
1. CCC1=C(C)C2=C(CC)c3c(C)c(CC)c(C)n3[B-](F)(F)[N+]2=C1C
2. COC1=C(C)C(C)=[N+]2C1=C(C)c1c(OC)c(C)c(C)n1[B-]2(F)F

Solution:
1: 4.92; 2: 4.85

Problem: Write down log ε measured for item CC1=C(C(C)(C)C)C(C)=[N+]2C1=C(C)c1c(C)c(C(C)(C)C)c(C)n1[B-]2(F)F
Solution: 4.83

###

Assay: UV light absorption (λmax, log ε)
Type: physicochemical
Settings: 5 × 10^-6 M in ethanol
Record form. Attribute: λmax. Fill in for each entry.
Answers are plain numbers, in nm.

INSERT INTO assay_data (molecule, quantity, readout_number) VALUES
  ('CCCC1=C(C)C2=C(C)c3c(C)c(CCC)c(C)n3[B-](F)(F)[N+]2=C1C [Compound 7d]', 'λmax', 517),
  ('CCC1=C(C)C2=C(COC(C)=O)c3c(C)c(CC)c(C)n3[B-](F)(F)[N+]2=C1C [Compound 7r]', 'λmax', 543),
  ('CCC1=C(c2ccccc2)C2=Cc3c(-c4ccccc4)c(CC)c(C)n3[B-](F)(F)[N+]2=C1C [Compound 7u]', 'λmax', 540);

// for each molecule in input: emit λmax
1. CCC1=C(C)C2=C(c3ccc(N(C)C)cc3)c3c(C)c(CC)c(C)n3[B-](F)(F)[N+]2=C1C [Compound 7s]
2. CCC1=C(C)C2=C(C(C)C)c3c(C)c(CC)c(C)n3[B-](F)(F)[N+]2=C1C [Compound 7p]
3. CC1=C2CCCCC2=[N+]2C1=C(C)c1c(C)c3c(n1[B-]2(F)F)CCCC3 [Compound 7i]
4. CCC1=C(C)C2=C(CC)c3c(C)c(CC)c(C)n3[B-](F)(F)[N+]2=C1C [Compound 7o]
5. CC1=C(c2ccccc2)C(C)=[N+]2C1=C(C)c1c(C)c(-c3ccccc3)c(C)n1[B-]2(F)F [Compound 7l]

Solution:
1: 519; 2: 527; 3: 522; 4: 520; 5: 519

// for each molecule in input: emit λmax
1. CC1=[N+]2C(=Cc3c(-c4ccccc4)cc(C)n3[B-]2(F)F)C(c2ccccc2)=C1 [Compound 7w]
2. COC1=C(C)C(C)=[N+]2C1=C(C)c1c(OC)c(C)c(C)n1[B-]2(F)F [Compound 7n]

Solution:
1: 521; 2: 485
